Tested on: Jurkat
Assay: Cell proliferation modulatory activity, Jurkat
Format: cell-based
Conditions: Homo sapiens
measurement-label: IC50 (µM)
Number only, in µM; omit the unit.

CC(C)Oc1ccc(Nc2ncc3c(n2)c(NC2CC2)nc2cc(C(=O)O)ccc23)cc1; 18.9

Request: Lab note: Jurkat assay, enter IC50 for O=C(O)c1ccc2c(c1)nc(NC1CC1)c1nc(Nc3cccc(Cl)c3)ncc12 here
Result: 2.17

Request: Lab note: Jurkat assay, enter IC50 for C#Cc1cccc(Nc2nc3cc(C(=O)N4CCCC4)ccc3c3cncnc23)c1 here
Result: 13.3

---

Target: recombinant human PIM1 (Homo sapiens (Human))
Sequence (P11309 whole entry): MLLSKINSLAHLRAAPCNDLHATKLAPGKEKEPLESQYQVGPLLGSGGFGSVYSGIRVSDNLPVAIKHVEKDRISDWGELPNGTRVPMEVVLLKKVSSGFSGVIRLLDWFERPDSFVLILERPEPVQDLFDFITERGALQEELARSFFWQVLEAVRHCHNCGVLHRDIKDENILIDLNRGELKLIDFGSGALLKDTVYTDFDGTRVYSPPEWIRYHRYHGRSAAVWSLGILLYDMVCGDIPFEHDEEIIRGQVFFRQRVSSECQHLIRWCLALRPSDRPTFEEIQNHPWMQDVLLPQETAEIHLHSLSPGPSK
Assay: PIM-1 kinase activity in cell-free in vitro assay
Format: biochemical
Settings: 500 nM compound, cell-free assay; read-out: PIM-1: % inh 500 nM
# Lookup of reported inhibition at 0.5 µM keyed by entry

// solved cases for inhibition at 0.5 µM follow
O=C(O)c1ccc2c(c1)nc(NCc1ccccc1)c1nc(NC3CC3)ncc12 [drawing 1626]; 25.3%
FC(F)(F)CCNc1nc2cc(-c3nnn[nH]3)ccc2c2sccc12; 92.3%
Cc1ccccc1Nc1nc2cc(C(=O)O)ccc2c2cnccc12; 92.3%
FC(F)(F)CNc1nc2cc(-c3nnn[nH]3)ccc2c2sccc12; 93.2%
OCCNc1nc2cc(-c3nnn[nH]3)ccc2c2sccc12; 101%

Request: Lab note: recombinant human PIM1 (Homo sapiens (Human)) assay, enter inhibition at 0.5 µM for N#Cc1ccc2c(c1)nc(NCCn1ccnc1)c1ccsc12 here
Result: -0.12%

Request: Lab note: recombinant human PIM1 (Homo sapiens (Human)) assay, enter inhibition at 0.5 µM for CC(=O)Nc1ccc2c(c1)nc(Nc1cccc(C(F)(F)F)c1)c1nc(NC3CC3)ncc12 here
Result: -39.8%

---

Molecular target: recombinant human PIM1 (Homo sapiens (Human))
Experiment: PIM-1 kinase activity in cell-free in vitro assay
Assay type: biochemical
Settings: 500 nM compound, cell-free assay; read-out: PIM-1: % inh 500 nM
Please mark Met if the recorded inhibition at 0.5 µM is equal to or greater than 20%, and Not met if it falls below.

COCCNc1nc2cc(-c3nnn[nH]3)ccc2c2sccc12; Met
O=C(NC1CC1)c1ccc2c(c1)nc(Nc1cccc(C(F)(F)F)c1)c1nc(NC3CC3)ncc12; Not met
N#Cc1ccc(Nc2nc3cc(C(=O)O)ccc3c3cnccc23)cc1; Met
CNc1ncc2c(n1)c(Nc1ccc(F)c(Cl)c1)nc1cc(C(=O)O)ccc12; Not met
CC(C)(C)OC(=O)N1CCN(c2nc3cc(C#N)ccc3c3sccc23)CC1; Not met

Pending compound:
Request: # bool: inhibition at 0.5 µM of c1ccc(CNc2nc3cc(-c4nnn[nH]4)ccc3c3sccc23)nc1 >= 20%
Result: Not met

---

Target: PARP-HSA enzyme (Homo sapiens (Human), UniProt P09874)
Sequence (P09874 whole entry): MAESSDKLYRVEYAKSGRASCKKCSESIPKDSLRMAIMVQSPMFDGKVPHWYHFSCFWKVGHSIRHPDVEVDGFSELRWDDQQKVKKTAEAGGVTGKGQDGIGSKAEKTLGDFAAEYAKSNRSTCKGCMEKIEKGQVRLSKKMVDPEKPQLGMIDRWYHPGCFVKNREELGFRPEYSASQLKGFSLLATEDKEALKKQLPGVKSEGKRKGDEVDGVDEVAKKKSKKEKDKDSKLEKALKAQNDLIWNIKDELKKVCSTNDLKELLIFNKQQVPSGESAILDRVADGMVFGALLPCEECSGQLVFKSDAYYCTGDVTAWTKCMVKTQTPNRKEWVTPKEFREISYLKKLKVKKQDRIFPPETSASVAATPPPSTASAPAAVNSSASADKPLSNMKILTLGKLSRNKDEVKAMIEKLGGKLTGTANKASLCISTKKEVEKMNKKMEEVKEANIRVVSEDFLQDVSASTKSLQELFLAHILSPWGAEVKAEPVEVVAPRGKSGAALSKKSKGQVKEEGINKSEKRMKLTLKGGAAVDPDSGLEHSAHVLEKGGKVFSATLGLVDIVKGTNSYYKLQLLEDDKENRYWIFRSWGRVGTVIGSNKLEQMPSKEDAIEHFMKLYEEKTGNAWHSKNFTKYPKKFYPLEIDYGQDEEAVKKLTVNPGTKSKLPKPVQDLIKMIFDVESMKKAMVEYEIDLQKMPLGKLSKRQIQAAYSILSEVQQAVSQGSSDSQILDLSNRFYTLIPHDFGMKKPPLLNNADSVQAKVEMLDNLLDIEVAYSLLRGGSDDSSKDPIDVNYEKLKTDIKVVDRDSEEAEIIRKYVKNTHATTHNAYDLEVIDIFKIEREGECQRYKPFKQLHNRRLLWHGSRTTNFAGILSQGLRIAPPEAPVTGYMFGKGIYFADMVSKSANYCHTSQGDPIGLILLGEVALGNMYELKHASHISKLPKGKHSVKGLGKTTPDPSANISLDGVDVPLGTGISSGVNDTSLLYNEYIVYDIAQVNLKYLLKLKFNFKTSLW
Experiment: PARP assay (chemiluminescent PARP assay kit, Trevigen)
Format: biochemical
Conditions: read-out: PARP Inhibition IC50
measurement-label: log10 IC50 (log10 of the value in nM)
Please be aware that the numbers have been log10-transformed from IC50 in nM.

COC(=O)c1ccc2c(c1)[nH]c(=O)c1ccncc12 [drawing 562]; 2.90
O=C(O)c1ccc2c(c1)[nH]c(=O)c1ccncc12; 3.00
O=C(O)c1ccc2c(c1)[nH]c(=O)c1ccccc12; 1.85
O=c1[nH]c2cc(-c3nnn[nH]3)ccc2c2ccccc12; 1.48
O=C(O)c1ccc2c(c1)nc(OCCCO)c1ccccc12 [drawing 559]; 2.60

API: the following record is the query input.
Request: Entry O=C(O)c1ccc2c3ccccc3c(=O)n(CCCO)c2c1 needs its log10 IC50 filled in; supply it.
Result: 1.78
